All figures here come from PubChem BioAssay (NCI).

Tested on: M19-MEL melanoma
Assay: NCI tumour cell line growth inhibition, 48 h
I'd be grateful if you could share measured TGI for these entries.

Answered cases to consult:
>  <compound>
O=C(O)C(CP(=O)(O)O)=C(Cl)Cl

>  <TGI>
> 100 µM

$$$$
>  <compound>
COC(=O)CCCN(C)c1n[nH]c(N)n1

>  <TGI>
> 100 µM

$$$$
>  <compound>
COC(=O)CCC(=O)CC(=O)C1=NS(=O)(=O)c2nc(S(N)(=O)=O)c(Cl)cc2N1

>  <TGI>
> 100 µM

$$$$

Give one value of TGI per listed compound.
1. COc1c(Cl)c2c(c(OC)c1OC)-c1ccc(OC)c(=O)c(Cl)c1C(NC(C)=O)CC2 (centres undefined)
2. COc1cc(/C=C2\[C@H]3c4c(c(OC)c(C)c(OC)c4OC)C[C@@H](C(=O)N2Cc2ccccc2)N3C(=O)OCC(C)C)c(OC)c(C)c1OC
3. CCCCCCCCCCCCCC(=O)O[C@H]1CC[C@H](NC(=O)[C@H](OC)[C@H](O)[C@@H](O)[C@H](O)/C=C/C(C)C)C(=O)NC1
4. CCOC(=O)/C(=C\c1ccc(O)c(OC)c1)C(=O)c1ccccc1

Ans.
1. > 28.4 µM
2. > 100 µM
3. 8.23 µM
4. 79.6 µM

Give one value of TGI per listed compound.
1. CN(C)c1ccc(-c2cc(=O)c3cc4c(cc3[nH]2)OCO4)cc1
2. C/C(=N\NS(=O)(=O)c1ccc(C)cc1)C(CN1CCOCC1)C(c1ccccc1)c1c(O)c2ccccc2oc1=O (centres undefined)

Ans.
> 100 µM
> 100 µM

###

Test system: UACC-257 melanoma
Experiment: NCI tumour cell line growth inhibition, 48 h
I'd be grateful if you could share measured TGI for these entries.
Give bare numbers, in µM.

>  <molecule>
O=C1/C(=C\c2ccc(Cl)cc2Cl)Sc2scc(-c3cccc([N+](=O)[O-])c3)[n+]21

>  <unit>
µM

>  <TGI>
18.3

$$$$
>  <molecule>
COc1cc(O)c2c(O)c3c(c4c2c1[C@]1(C4)C(C)=CCCC1(C)C)[C@H](O)[C@@]1(O)CC(=O)C(C(N)=O)=C(O)[C@@]1(O)C3=O

>  <unit>
µM

>  <TGI>
0.931

$$$$

Give one value of TGI per listed molecule.
1. C=C1C(=O)O[C@@H]2C[C@@]3(C)CCC[C@H](C)C3=C[C@H]12
2. Cc1nn(-c2nc3ccccc3s2)c(C)c1Oc1ccccc1O

Ans.
[20.1, 14.7]

Qu. If you can, please state the reported TGI value of O=S1c2ccccc2N=C(c2ccc3ccccc3c2)CC1C1=CC=CCC1 (stereo not given) .
Ans. 34.8

###

Test system: T-47D breast
Assay: NCI tumour cell line growth inhibition, 48 h
observable: TGI

Answered cases to consult:
>  <compound>
O=C1/C(=C\c2ccc(Cl)cc2Cl)Sc2scc(-c3cccc([N+](=O)[O-])c3)[n+]21

>  <recorded_result>
57.8 µM

$$$$
>  <compound>
CN(NC(=O)c1ccco1)C1=NCCN1

>  <recorded_result>
> 100 µM

$$$$
>  <compound>
COc1ccc(NC(=O)CC(=O)N2N=C(N3CCCCC3)CC2c2ccccc2)cc1 (configuration not stated)

>  <recorded_result>
> 100 µM

$$$$

Give one value of TGI per listed compound.
1. O=C(Nc1ccccc1O)c1cccc(NC2=C(Cl)C(=O)N(Cc3ccccc3)C2=O)c1
2. COc1cc2c3c(n(CCCCOC(=O)C(F)(F)F)c(=O)c2cc1OC)-c1cc2c(cc1C3=O)OCO2
3. COC(=O)Nc1nc2ccc(Oc3ccc(NC(=O)Nc4cccc(C(=O)O)c4)cc3)cc2[nH]1
4. OC(c1nc2ccccc2s1)(C(F)(F)F)C(F)(F)F
5. COc1ccc(-c2[nH]c3ccccc3c2C=C(C#N)C#N)cc1

Ans.
1: 28.6 µM; 2: > 100 µM; 3: > 25 µM; 4: > 100 µM; 5: > 100 µM
